Experiment: NCI Yeast Anticancer Drug Screen. Data for the mec2-1 strain (AID 157)
Conditions: S. cerevisiae mec2-1 strain, at 50.0 µM, hits give high values
The panel holds about 79,000 compounds, 15% with a hit somewhere; the sample as a whole holds those more often.
quantity: growth inhibition (%)
# value in %; strip the unit string

Would you please look over these solved cases?
[[record]]
molecule = "Nc1ccccc1CC(c1c[nH]c2ccccc12)c1c[nH]c2ccccc12"
quantity = "growth inhibition"
value_reported = 95

[[record]]
molecule = "CCN1/C(=C/C(C)=C/c2sc3ccccc3[n+]2CC)Sc2ccccc21"
quantity = "growth inhibition"
value_reported = 94

[[record]]
molecule = "Cc1cc(N=Nc2ccncc2C)ccc1N"
quantity = "growth inhibition"
value_reported = 52.5

[[record]]
molecule = "ON=C1Cc2ccccc2-c2ccccc2C1"
quantity = "growth inhibition"
value_reported = -11.1


Q) Quick one: growth inhibition of OC1c2ccccc2C2(O)C1C(c1ccccc1)C(c1ccccc1)C2(O)c1ccccc1 (stereo unspecified) ?
A) 97

Q) Quick one: growth inhibition of `COC1=CC(=O)c2ncc(Cl)cc2C1=O` ?
A) 95.5

Q) Quick one: growth inhibition of `COc1cc2c(cc1OC)-c1nc(N)sc1CC2` ?
A) 85.5

Q) Quick one: growth inhibition of `Nc1ccc(O)c(=O)cc1` ?
A) 45.1

Q) Quick one: growth inhibition of `COc1ccc(Cc2cncc3c(O)c(OC)ccc23)cc1O` ?
A) 69.2

Q) Quick one: growth inhibition of COc1cccc2c1C(=O)c1c(O)c3c(c(O)c1C2=O)C[C@@](O)(C(C)=O)C[C@@H]3OC1CC(N(CCO)Cc2ccccc2)C(O)C(C)O1 (stereo partly specified) ?
A) 91.3

Q) Quick one: growth inhibition of `FC(F)(F)c1[nH]nc(-c2ccc(Cl)cc2)c1N=NN1CCOCC1` ?
A) 95.8

---

Assay: NCI Yeast Anticancer Drug Screen. Data for the rad50 strain (AID 155);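 further: 0% = growth of vehicle-only cultures of the same strain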
Details: S. cerevisiae rad50 strain growth inhibition; at 50.0 µM (retest, dose inferred, filed as 5.0); hits give high values
About 79,000 compounds went through this panel and 15% of them were active in at least one assay; those are over-represented in the sample as a whole.
quantity: growth inhibition (%)
# value in %; strip the unit string

[[record]]
molecule = "CSc1ncc2c(n1)-c1ccccc1OC2NC1CC1 (stereo unspecified)"
value_reported = 22

[[record]]
molecule = "CCN(CC)CCNc1c(O)cc(C)c2sc3ccccc3c(=O)c12"
value_reported = 95

[[record]]
molecule = "N#CS/C(Cl)=C(/C(Cl)=C(Cl)Cl)[N+](=O)[O-]"
value_reported = 99

[[record]]
molecule = "O=C(OC12CCCCC1CCCC2)c1ccc([N+](=O)[O-])cc1 (stereo unspecified)"
value_reported = 98

[[record]]
molecule = "COc1ccc(CCN2CC(=O)N3CSCC3C2=O)cc1OC (stereo unspecified)"
value_reported = 24


Q) Quick one: growth inhibition of `NC(=O)C1CCN(N=Nc2c(-c3ccccc3)n[nH]c2-c2ccccc2)CC1` ?
A) 99

Q) Quick one: growth inhibition of `O=C(COC(=O)c1ccc(O)cc1)c1ccc(-c2ccccc2)cc1` ?
A) -13

Q) Quick one: growth inhibition of CC(C)C1/C(=N/O)CC(c2ccccc2)N(N=O)C1c1ccccc1 (stereo unspecified) ?
A) 97

Q) Quick one: growth inhibition of O=C1C=CC2C(=O)c3ccccc3C(=O)C2=C1 (stereo unspecified) ?
A) 89

Q) Quick one: growth inhibition of `CCS(=O)(=O)/C=C\S(=O)(=O)CC` ?
A) -117

Q) Quick one: growth inhibition of S=C1NC2=C(COC/C2=C\c2ccccc2Cl)C(c2ccccc2Cl)N1 (stereo unspecified) ?
A) 94

---

Assay: NCI Yeast Anticancer Drug Screen. Data for the mlh1 rad18 strain (AID 175)
Settings: S. cerevisiae mlh1 rad18 strain growth inhibition; at 50.0 µM; hits give high values
This is part of a sample that, as a whole, favours compounds with a hit. Of some 79,000 tested, about 15% had one in any assay.
Quick rule for you: growth inhibition at 70% or higher means fulfilled, lower means not fulfilled.

[[record]]
compound = "COc1cc(OC(C)C)cc2c1C(=O)C(C(O)(O)C(F)(F)F)=CC2=O"
answer_label = "fulfilled"


Q) Does `CCOC(=O)c1c(Cl)nnc(-c2ccccc2)c1-c1ccccc1` have a reported growth inhibition of at least 70%?
A) fulfilled

Q) Does `CC1=C(C)C(=O)C(CNCc2ccccc2)=[C-]C1=O.[Co].[c-]1[c-][c-][cH-][c-]1` have a reported growth inhibition of at least 70%?
A) not fulfilled

Q) Does `CC#CC(=O)Nc1ccccc1CC(c1c[nH]c2ccccc12)c1c[nH]c2ccccc12` have a reported growth inhibition of at least 70%?
A) not fulfilled

Q) Does Clc1ccccc1C(Cc1c(Cl)cccc1Cl)Cn1ccnc1 (stereo unspecified) have a reported growth inhibition of at least 70%?
A) fulfilled

Q) Does COc1ccc(C(c2cc3c(cc2O)OCO3)N2CCCC2)c(OC)c1 (stereo unspecified) have a reported growth inhibition of at least 70%?
A) fulfilled

Q) Does `O=C(N=Nc1c(O)[nH]c2ccccc12)C(O)(c1ccccc1)c1ccccc1` have a reported growth inhibition of at least 70%?
A) not fulfilled

Q) Does `CCn1c(O)c(C=Nc2ccccc2)s/c1=N/Nc1nc(-c2ccc(O)c(O)c2)cs1` have a reported growth inhibition of at least 70%?
A) not fulfilled

Q) Does CCCC/C=C1\CCC(CN2CCCCC2)C1=O (stereo unspecified) have a reported growth inhibition of at least 70%?
A) fulfilled

Q) Does `CN(C)N=Nc1ccc2[nH]c(=O)[nH]c2c1` have a reported growth inhibition of at least 70%?
A) fulfilled

Q) Does `CCCC(=O)NCCNC(=O)CCC` have a reported growth inhibition of at least 70%?
A) not fulfilled

---

Test: NCI Yeast Anticancer Drug Screen. Data for the sgs1 mgt1 strain (AID 161);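 further: 0% = growth of cultures given vehicle only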
Conditions: S. cerevisiae sgs1 mgt1 strain, at 5.0 µM (retest, dose inferred, filed as 0.5), hits give high values
Compounds without any hit were thinned out: in the full panel of roughly 79,000, 15% have a hit. Activity calls are given as the source filed them. No stated cut-off is given here; in the data, active means growth inhibition above about 70%; inactive means the rest.
Here the recorded growth inhibition is given for each entry.

Would you please look over these solved cases?
[[record]]
compound = "Cc1cc(NCCCN(C)C)c2cc3ccc4cccc5ccc(c2n1)c3c45"
quantity = "growth inhibition"
value_reported = "-3% (inactive)"

[[record]]
compound = "CCCCc1ccc(Nc2nc(N)c3[nH]cnc3n2)cc1"
quantity = "growth inhibition"
value_reported = "18% (inactive)"

[[record]]
compound = "CC(C)(Br)C(=O)/C=C/c1ccc(Cl)cc1"
quantity = "growth inhibition"
value_reported = "94% (active)"

[[record]]
compound = "O=C(O)c1c(-c2ccccc2)cc(-c2ccccc2)cc1-c1ccccc1"
quantity = "growth inhibition"
value_reported = "93% (active)"

[[record]]
compound = "Oc1ccc(Cl)cc1-c1ccccc1"
quantity = "growth inhibition"
value_reported = "-13% (inactive)"


Q) Quick one: growth inhibition of Cc1c(N)nc(C(CC(N)=O)NCC(N)C(N)=O)nc1C(=O)NC(C(=O)NC(C)C(O)C(C)C(=O)NC(C(=O)NCCc1nc(-c2nc(C(=O)NCCCNC(C)c3ccccc3)cs2)cs1)C(C)O)C(OC1OC(CO)C(O)C(O)C1OC1OC(CO)C(O)C(OC(N)=O)C1O)c1cnc[nH]1 (centres undefined) ?
A) 95% (active)

Q) Quick one: growth inhibition of Cc1c(N)nc(C2CC(=O)N2CC(N)C(N)=O)nc1C(=O)NC(C(=O)NC(C)C(O)C(C)C(=O)NC(C(=O)NCCc1nc(-c2nc(C(=O)NCCCNC3CCCC3)cs2)cs1)C(C)O)C(OC1OC(CO)C(O)C(O)C1OC1OC(CO)C(O)C(OC(N)=O)C1O)c1cnc[nH]1 (centres undefined) ?
A) 96% (active)

Q) Quick one: growth inhibition of `CC(C)(C)C(OC(=O)Nc1ccccc1)C(C)(C)C` ?
A) 4% (inactive)

Q) Quick one: growth inhibition of `CC#CC(=O)Nc1ccccc1CC(c1c[nH]c2ccccc12)c1c[nH]c2ccccc12` ?
A) 40% (inactive)

Q) Quick one: growth inhibition of CC1(c2ccc(Cl)cc2)OC(=O)c2c1ccc1ccccc21 (centres undefined) ?
A) 7% (inactive)

Q) Quick one: growth inhibition of `CC(C)C(=O)[O][Bi]([c]1ccccc1)[c]1ccccc1` ?
A) -32% (inactive)

Q) Quick one: growth inhibition of COC1=CC(=O)c2c(O)c3c(c(O)c2C1=O)OC1(Oc2c(cc4cc(C)oc(=O)c4c2O)CC1O)C3O (centres undefined) ?
A) 97% (active)

---

Assay: NCI Yeast Anticancer Drug Screen. Data for the bub3 strain (AID 167)
Settings: S. cerevisiae bub3 mutant strain, at 50.0 µM (retest, dose inferred, filed as 5.0), hits give high values
About 79,000 compounds went through this panel and 15% of them were active in at least one assay; those are over-represented in the sample as a whole.
quantity: growth inhibition (%)
# value in %; strip the unit string

Would you please look over these solved cases?
[[record]]
molecule = "COc1ccc(C(C)c2cc3c(cc2OC/C(C)=N/NC(N)=O)OCO3)cc1 (centres undefined)"
quantity = "growth inhibition"
value_reported = 99

[[record]]
molecule = "O=C1OCCCOC(=O)c2cc(ccc2O)OCC#CC#CCOc2ccc(O)c1c2"
quantity = "growth inhibition"
value_reported = -6

[[record]]
molecule = "O=C1C(=O)C(Br)(c2ccccc2)C(=O)C1c1ccccc1 (centres undefined)"
quantity = "growth inhibition"
value_reported = 97


Query molecule follows.
Q) Quick one: growth inhibition of CC(=O)OC1=Cc2ccccc2C(c2ccccc2)c2ccccc21 (centres undefined) ?
A) 20
